biological target: VIM-2 (Escherichia coli, UniProt Q5U7L7); construct: All β-lactamase overexpression constructs were generated without the leader peptide in a pET-28b plasmid containing a N-terminal His Tag; His tag (N); test: Inactivation kinetics
MEASUREMENT KIND: Ki (nM)
Entry rule: numbers only, all in nM.

Q: Kindly indicate its recorded Ki. Item: N[C@H](CN[C@H](CN[C@@H](CC(=O)O)C(=O)O)C(=O)O)C(=O)O
A: 7

---

target: NDM-1 (Klebsiella pneumoniae); experiment: Inactivation kinetics
Sequence (C7C422 29-270 limits assumed): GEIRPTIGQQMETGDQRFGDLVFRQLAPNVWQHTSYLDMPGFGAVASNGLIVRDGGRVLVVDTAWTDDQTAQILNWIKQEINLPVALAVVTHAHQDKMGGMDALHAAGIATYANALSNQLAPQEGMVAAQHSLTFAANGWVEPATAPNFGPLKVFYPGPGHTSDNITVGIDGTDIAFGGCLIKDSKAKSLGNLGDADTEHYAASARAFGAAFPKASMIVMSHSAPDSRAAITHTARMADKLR
MEASUREMENT KIND: pKi
Worth noting: pKi values are minus log10 of concentrations stated in mol/L.

Q: Please supply the value of reported pKi for the item N[C@H](CN[C@H](CN[C@@H](CC(=O)O)C(=O)O)C(=O)O)C(=O)O
A: 7.96
